hERG potassium channel (Homo sapiens) measurements of inhibition at 10 µM, listed per entry.
Sequence (Q12809 whole entry): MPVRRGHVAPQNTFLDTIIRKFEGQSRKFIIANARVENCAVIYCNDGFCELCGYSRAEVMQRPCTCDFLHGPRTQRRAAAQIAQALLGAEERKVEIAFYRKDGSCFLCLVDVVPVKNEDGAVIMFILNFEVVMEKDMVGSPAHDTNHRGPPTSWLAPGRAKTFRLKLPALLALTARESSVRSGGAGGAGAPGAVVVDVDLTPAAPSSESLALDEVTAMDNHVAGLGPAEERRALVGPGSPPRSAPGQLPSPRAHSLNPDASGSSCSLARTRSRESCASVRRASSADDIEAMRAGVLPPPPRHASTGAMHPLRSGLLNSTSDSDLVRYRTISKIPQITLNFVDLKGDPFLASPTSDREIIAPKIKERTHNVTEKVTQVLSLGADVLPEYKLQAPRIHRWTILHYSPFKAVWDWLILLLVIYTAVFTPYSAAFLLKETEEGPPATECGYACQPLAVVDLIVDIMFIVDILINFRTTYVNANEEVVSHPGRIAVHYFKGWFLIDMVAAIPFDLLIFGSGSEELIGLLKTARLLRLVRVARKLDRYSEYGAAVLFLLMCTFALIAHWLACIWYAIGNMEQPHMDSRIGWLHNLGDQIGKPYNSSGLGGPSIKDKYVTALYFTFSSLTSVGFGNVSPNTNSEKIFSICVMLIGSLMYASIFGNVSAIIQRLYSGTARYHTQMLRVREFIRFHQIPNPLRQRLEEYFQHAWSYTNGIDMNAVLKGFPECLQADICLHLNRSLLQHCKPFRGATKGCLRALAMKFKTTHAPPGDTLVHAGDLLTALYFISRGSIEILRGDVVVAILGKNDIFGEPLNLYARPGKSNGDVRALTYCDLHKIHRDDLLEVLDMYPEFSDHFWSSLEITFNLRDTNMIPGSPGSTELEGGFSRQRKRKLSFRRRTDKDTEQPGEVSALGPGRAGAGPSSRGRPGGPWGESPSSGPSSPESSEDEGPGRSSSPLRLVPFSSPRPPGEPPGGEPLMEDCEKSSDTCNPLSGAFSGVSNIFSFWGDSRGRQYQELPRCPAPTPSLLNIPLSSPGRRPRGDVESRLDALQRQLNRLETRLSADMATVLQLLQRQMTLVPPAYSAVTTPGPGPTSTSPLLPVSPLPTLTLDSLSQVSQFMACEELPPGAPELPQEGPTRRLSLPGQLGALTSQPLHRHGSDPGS
Please give a number only; it is taken to be in %.

State the recorded inhibition at 10 µM for this entry: O=C(Nc1nnc(-c2ccc(F)cc2)o1)N1CC=C(C(F)(F)F)CC1 [compound 4347]
0

Proceed to O=C(Nc1nnc(-c2ccc(F)cc2)o1)c1ccc(OC2CCCCC2)cc1 [compound 4292]
8

* * *

CYP2C9 (Homo sapiens) measurements of inhibition at 10 µM, listed per entry.
Sequence (P11712 whole entry): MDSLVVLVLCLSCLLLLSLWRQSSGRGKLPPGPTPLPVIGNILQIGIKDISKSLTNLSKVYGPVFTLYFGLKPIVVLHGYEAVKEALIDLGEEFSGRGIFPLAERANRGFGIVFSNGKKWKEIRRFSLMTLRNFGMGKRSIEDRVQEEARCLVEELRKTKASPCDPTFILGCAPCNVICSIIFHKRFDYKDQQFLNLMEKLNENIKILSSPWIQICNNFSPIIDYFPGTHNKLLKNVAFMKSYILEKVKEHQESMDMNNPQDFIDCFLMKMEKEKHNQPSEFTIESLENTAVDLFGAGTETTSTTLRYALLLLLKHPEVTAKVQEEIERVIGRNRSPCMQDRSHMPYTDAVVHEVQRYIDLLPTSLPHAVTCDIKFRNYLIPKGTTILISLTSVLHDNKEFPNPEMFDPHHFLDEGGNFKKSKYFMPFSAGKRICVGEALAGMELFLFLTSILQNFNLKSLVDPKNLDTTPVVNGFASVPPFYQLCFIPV

State the recorded inhibition at 10 µM for this entry: O=C(Nc1nnc(-c2ccc(F)cc2)o1)c1ccc(OC2CCCCC2)cc1
10%

Proceed to O=C(Nc1nnc(-c2ccc(F)cc2)o1)N1CC=C(C(F)(F)F)CC1
4%

* * *

# assaySystem: CYP2D6 (Homo sapiens)
# Construct: purchased BD Gentest Corp., Woburn, Mass
# Sequence (P10635 whole entry): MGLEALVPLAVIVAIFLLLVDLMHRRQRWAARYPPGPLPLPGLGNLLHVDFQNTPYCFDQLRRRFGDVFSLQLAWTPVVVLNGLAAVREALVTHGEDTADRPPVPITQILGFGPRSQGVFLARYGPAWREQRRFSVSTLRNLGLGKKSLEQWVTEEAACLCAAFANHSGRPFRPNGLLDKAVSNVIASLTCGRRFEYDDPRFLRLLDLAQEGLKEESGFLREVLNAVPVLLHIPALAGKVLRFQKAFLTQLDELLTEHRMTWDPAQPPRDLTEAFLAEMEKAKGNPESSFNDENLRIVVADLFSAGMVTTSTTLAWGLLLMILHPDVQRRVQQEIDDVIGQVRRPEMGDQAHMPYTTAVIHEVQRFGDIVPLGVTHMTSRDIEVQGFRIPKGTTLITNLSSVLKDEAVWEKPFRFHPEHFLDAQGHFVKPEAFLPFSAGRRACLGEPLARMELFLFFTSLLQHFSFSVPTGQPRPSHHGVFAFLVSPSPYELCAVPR
# testName: CYP450 inhibition
# Type: biochemical
# measurementContext: 10 μM compound, Hit Profile Panel, read-out: % Inhibition, CYP450, 2D6
Catalogue of inhibition at 10 µM values
Please give a number only; it is taken to be in %.

- smilesRepr: "O=C(Nc1nnc(-c2ccc(F)cc2)o1)N1CC=C(C(F)(F)F)CC1"
  assaySystem: "CYP2D6 (Homo sapiens)"
  inhibition at 10 µM (%): 9

Attention now shifts to the item below.
API: value(readout= inhibition at 10 µM, system= CYP2D6 (Homo sapiens), query= O=C(Nc1nnc(-c2ccc(F)cc2)o1)c1ccc(OC2CCCCC2)cc1 )
2

* * *

# Test system: S. aureus
# testName: MIC (Table 2B)
# Type: cell-based
# measurementContext: Staphylococcus aureus, strain not given
Flag rule - MIC less than 2 µg/mL flags 1; the remaining entries get -1.

Below are worked cases with known answers.
- compound: "O=C(Nc1nnc(C2CCCCC2)o1)c1ccc(Oc2ccccc2)nc1"
  cat: -1
- compound: "O=C(Nc1nnc(C2CCCCC2)o1)c1ccc(Oc2cccc(O)c2)cc1"
  cat: -1
- compound: "Cc1cncc(Oc2ccc(C(=O)Nc3nnc(C4CC5CCC4C5)o3)cc2)n1 (stereo not drawn)"
  cat: -1
- compound: "COc1c(F)cccc1-c1nnc(NC(=O)c2ccc(Oc3cncc(C)n3)cc2)o1"
  cat: -1
- compound: "O=C(Nc1nnc(-c2ccccc2O)o1)c1ccc(Oc2ccccc2)nc1 [5939A]"
  cat: 1
- compound: "Cc1cccc(-c2nnc(NC(=O)c3ccc(Oc4ccccc4)nc3)o2)c1"
  cat: 1

# TODO verify MIC < 2 µg/mL strictly for this compound: O=C(Nc1nnc(-c2ccccc2O)o1)c1ccc(Oc2cccc(O)c2)cc1
1

Proceed to O=C(Nc1nnc(C2COc3ccccc3O2)o1)c1ccc(Oc2ccccc2)nc1 (stereo not drawn)
-1

Proceed to Cc1ccc(Oc2ccc(C(=O)Nc3nnc(-c4ccc(F)cc4)o3)cc2)cc1
1

* * *

# assaySystem: CYP1A2 (Homo sapiens)
# Sequence (P05177 whole entry): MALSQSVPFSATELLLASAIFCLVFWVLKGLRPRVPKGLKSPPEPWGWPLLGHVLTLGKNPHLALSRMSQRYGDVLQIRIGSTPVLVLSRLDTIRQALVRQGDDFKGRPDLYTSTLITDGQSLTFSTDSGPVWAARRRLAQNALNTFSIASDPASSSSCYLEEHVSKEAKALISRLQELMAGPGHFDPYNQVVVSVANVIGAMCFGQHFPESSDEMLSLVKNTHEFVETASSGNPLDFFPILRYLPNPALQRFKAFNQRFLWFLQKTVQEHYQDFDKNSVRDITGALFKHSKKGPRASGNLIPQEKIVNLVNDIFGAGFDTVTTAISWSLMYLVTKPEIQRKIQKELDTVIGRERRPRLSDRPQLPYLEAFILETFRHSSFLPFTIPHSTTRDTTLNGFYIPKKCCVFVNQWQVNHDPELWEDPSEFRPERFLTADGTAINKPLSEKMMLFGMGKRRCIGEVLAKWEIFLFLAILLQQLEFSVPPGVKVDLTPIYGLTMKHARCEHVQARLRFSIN
Catalogue of inhibition at 10 µM values

- smilesRepr: "O=C(Nc1nnc(-c2ccc(F)cc2)o1)c1ccc(OC2CCCCC2)cc1"
  assaySystem: "CYP1A2 (Homo sapiens)"
  inhibition at 10 µM: "5%"

Attention now shifts to the item below.
State the recorded inhibition at 10 µM for this entry: O=C(Nc1nnc(-c2ccc(F)cc2)o1)N1CC=C(C(F)(F)F)CC1
2%

* * *

# Tested on: S. aureus
# testName: MIC (Table 2B)
# Format: cell-based
# measurementContext: Staphylococcus aureus, strain not given
Flag rule - MIC less than 3 mg/L flags label 1; the remaining entries get label 0.

- compound: "O=C(Nc1nnc(-c2ccc(F)cc2)o1)c1ccc(S(=O)(=O)c2ccccc2)cc1"
  cat: "label 1"
- compound: "Cc1cc(C)cc(Oc2ccc(C(=O)Nc3nnc(-c4ccc(F)cc4)o3)cc2)c1"
  cat: "label 1"
- compound: "O=C(Nc1nnc(-c2cc(F)ccc2O)o1)c1ccc(Oc2cccc(O)c2)cc1"
  cat: "label 1"
- compound: "O=C(Nc1nnc(C2CC3CCC2C3)o1)c1ccc(Oc2ccccc2)nc1 (centres unmarked)"
  cat: "label 0"
- compound: "O=C(Nc1nnc(C2CCCC2)o1)c1ccc(Oc2ccccc2)nc1"
  cat: "label 0"
- compound: "COc1cccc(Oc2ccc(C(=O)Nc3nnc(-c4ccc(F)cc4)o3)cc2)c1"
  cat: "label 1"

# TODO verify MIC < 3 mg/L strictly for this compound: CN(C(=O)c1ccc(Cl)cc1)c1nnc(-c2ccc(F)cc2)o1
label 0

* * *

# Tested on: S. aureus
# testName: MIC (Table 2B)
# Format: cell-based
# measurementContext: Staphylococcus aureus, strain not given
Flag rule - MIC less than 3 µg/mL flags 1.0; the remaining entries get 0.0.

- compound: "O=C(Nc1nnc(-c2ccc(F)cc2)o1)c1ccc(N2CCC2)cc1"
  cat: 0.0
- compound: "O=C(Nc1nnc(C2CC3CCC2C3)o1)c1ccc(OC2CCN(CC(F)(F)F)CC2)cc1 (stereo not shown)"
  cat: 0.0
- compound: "Cc1cccc(Oc2ccc(C(=O)Nc3nnc(-c4ccc(F)cc4)o3)cc2)c1"
  cat: 1.0

# TODO verify MIC < 3 µg/mL strictly for this compound: O=C(Nc1nnc(-c2cccc(O)c2)o1)c1ccc(Oc2cccc(O)c2)cc1
0.0

Proceed to COc1ccc(Oc2ccc(C(=O)Nc3nnc(-c4ccc(F)cc4)o3)cc2)cc1
1.0

Proceed to O=C(Nc1nnc(-c2ccc(F)cc2)o1)c1ccc(OC2CCCC2)cc1
1.0

Proceed to Cc1ccccc1Oc1ccc(C(=O)Nc2nnc(-c3ccc(F)cc3)o2)cc1
1.0

Proceed to Cc1ccc(C(=O)Nc2nnc(-c3ccc(N4CCC4)cc3)o2)cc1C [3999A]
1.0

Proceed to O=C(Nc1nnc(-c2cccc(F)c2O)o1)c1ccc(Oc2cccc(O)c2)cc1
1.0
